target under test: GlunN1/GluN2A glutamate receptors (Homo sapiens, UniProt Q05586+Q12879)
Sequence (Q12879 23-1464, other chains not shown): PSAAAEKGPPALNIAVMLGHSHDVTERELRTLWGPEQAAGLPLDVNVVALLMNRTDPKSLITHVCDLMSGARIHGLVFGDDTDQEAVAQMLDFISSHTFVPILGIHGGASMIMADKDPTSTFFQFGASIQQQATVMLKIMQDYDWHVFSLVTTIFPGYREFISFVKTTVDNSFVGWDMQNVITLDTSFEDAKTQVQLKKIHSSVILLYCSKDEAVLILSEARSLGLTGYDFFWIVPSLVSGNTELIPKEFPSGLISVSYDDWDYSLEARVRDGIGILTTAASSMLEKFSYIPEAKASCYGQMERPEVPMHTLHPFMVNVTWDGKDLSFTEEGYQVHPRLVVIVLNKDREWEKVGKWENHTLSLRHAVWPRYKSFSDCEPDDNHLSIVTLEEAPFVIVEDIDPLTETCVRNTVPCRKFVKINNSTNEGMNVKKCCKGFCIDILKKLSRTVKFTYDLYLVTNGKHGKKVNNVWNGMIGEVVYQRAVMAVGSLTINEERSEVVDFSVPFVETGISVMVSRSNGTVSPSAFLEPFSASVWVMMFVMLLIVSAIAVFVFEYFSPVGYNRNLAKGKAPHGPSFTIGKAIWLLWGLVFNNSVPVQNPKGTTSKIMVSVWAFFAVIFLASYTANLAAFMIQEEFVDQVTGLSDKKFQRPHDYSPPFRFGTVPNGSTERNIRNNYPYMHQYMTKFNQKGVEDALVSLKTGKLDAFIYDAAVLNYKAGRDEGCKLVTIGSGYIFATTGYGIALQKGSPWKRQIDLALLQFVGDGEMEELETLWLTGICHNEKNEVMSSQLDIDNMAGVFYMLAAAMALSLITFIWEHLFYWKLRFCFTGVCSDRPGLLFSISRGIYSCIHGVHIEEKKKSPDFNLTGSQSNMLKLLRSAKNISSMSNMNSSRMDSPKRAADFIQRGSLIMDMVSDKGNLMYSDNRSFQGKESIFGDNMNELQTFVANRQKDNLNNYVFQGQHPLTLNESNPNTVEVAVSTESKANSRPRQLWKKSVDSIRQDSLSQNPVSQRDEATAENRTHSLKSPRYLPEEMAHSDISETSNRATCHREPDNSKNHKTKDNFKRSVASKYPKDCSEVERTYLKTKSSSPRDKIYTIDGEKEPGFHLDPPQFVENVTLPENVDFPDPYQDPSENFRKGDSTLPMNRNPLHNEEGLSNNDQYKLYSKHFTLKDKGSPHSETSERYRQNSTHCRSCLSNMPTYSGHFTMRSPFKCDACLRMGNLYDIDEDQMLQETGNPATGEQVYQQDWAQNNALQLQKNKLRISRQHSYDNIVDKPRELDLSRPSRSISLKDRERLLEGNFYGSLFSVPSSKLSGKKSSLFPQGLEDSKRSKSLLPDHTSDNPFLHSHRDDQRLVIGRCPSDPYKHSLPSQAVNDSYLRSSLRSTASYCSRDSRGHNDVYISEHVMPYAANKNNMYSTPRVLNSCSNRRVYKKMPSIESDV
test: Whole-cell patch clamp of mammalian cells (Ionworks Barracuda), positive allosteric modulation (PAM) of NMDA receptor, 2A
stated conditions: HEK293 cells; co-application with EC20 L-glutamate and 30 µM glycine; 8-point concentration-response

- compound smiles: "C[C@H](CCC1(O)CCC(C)(C)CC1)[C@H]1CC[C@H]2[C@@H]3CC[C@@H]4C[C@](O)(C(F)(F)F)CC[C@]4(C)[C@H]3C(=O)C[C@]12C"
  EC50: "> 10 µM"
- compound smiles: "CC[C@]1(O)CC[C@@]2(C)[C@@H](CC[C@@H]3[C@@H]2CC[C@]2(C)[C@@H]([C@H](C)CC[C@H](O)c4ccccn4)CC[C@@H]32)C1"
  EC50: "> 10 µM"
- compound smiles: "CC[C@]1(O)CC[C@@]2(C)[C@@H](CC[C@@H]3[C@@H]2CC[C@]2(C)[C@@H]([C@H](C)CC[C@@H](O)c4ccccn4)CC[C@@H]32)C1"
  EC50: "> 10 µM"
